# System under test: T1, C3b (human, UniProt P01024 23-667; P01024 749-1663)
# T1 construct: also called soluble C3b; human C3b
# T1 sequence (P01024 23-667 limits assumed, chain 1 of 2): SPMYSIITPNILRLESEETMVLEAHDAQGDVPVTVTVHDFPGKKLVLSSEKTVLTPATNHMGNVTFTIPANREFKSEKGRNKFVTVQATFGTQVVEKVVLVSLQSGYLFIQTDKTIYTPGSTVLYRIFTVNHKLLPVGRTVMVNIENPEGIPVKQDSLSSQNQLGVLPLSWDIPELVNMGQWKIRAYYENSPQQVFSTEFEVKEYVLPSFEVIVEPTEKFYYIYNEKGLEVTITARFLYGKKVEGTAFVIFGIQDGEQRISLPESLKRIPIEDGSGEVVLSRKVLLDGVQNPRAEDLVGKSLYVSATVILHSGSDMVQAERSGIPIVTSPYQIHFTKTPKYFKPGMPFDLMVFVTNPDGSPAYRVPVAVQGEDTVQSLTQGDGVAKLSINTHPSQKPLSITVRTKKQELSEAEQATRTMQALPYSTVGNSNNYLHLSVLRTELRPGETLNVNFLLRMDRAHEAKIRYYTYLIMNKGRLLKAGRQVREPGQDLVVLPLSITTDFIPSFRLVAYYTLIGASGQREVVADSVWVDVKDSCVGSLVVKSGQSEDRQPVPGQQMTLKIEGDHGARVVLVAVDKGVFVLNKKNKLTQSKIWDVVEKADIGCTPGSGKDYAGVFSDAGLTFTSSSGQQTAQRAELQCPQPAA
# T1 sequence (P01024 749-1663 limits assumed, chain 2 of 2): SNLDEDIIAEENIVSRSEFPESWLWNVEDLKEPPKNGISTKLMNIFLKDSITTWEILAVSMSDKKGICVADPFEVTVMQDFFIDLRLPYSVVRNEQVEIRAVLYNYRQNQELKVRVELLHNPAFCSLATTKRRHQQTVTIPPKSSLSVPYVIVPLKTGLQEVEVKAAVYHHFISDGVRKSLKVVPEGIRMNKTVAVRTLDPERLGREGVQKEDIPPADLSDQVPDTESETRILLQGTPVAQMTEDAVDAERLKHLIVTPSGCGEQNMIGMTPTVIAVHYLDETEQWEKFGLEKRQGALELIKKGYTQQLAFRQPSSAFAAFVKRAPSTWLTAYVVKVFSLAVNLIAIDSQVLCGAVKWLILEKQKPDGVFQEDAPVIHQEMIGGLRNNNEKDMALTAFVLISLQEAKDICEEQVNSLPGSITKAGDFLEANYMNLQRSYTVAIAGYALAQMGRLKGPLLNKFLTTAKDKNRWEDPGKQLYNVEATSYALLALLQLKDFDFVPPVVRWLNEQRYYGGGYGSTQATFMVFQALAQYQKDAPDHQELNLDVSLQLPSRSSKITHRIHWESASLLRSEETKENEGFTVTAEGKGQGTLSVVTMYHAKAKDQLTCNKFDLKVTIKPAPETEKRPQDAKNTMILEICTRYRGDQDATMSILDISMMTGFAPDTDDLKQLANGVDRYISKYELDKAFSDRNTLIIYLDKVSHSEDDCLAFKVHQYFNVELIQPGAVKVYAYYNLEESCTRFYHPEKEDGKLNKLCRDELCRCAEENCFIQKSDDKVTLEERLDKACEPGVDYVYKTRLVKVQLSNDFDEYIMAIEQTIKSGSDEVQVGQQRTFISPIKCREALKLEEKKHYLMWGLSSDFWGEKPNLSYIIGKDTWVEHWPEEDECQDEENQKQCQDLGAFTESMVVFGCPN
# Assay method text: competitive ELISA, column 'Mu Ic50 (nM)'; format of paragraph 183: variant in solution competes with coated huCRIg(L)-LFH for C3b
pIC50: −log10 of the molar value.
Property: pIC50; scope: individual binders
Reported endpoint: pIC50

• IRL21 (receptor, also called Q60I-Q64R/G42D) CRIg variant: RPILEVPESVTGPWKGDVNLPCTYDPLQGYTQVLVKWLVQRDSDPVTIFLRDSSGDHIQIAKYRGRLHVSHKVPGDVSLQLSTLEMDDRSHYTCEVTWQTPDGNQVVRDKITELRVQKHSSKLLKTKTEAPTTMTYPLKATSTVKQSWDWTTDMDGYLGETSAGPGK = 7.54
• YL24 (receptor, also called M86Y/G42D/D44H/P45F) CRIg variant: RPILEVPESVTGPWKGDVNLPCTYDPLQGYTQVLVKWLVQRDSHFVTIFLRDSSGDHIQQAKYQGRLHVSHKVPGDVSLQLSTLEYDDRSHYTCEVTWQTPDGNQVVRDKITELRVQKHSSKLLKTKTEAPTTMTYPLKATSTVKQSWDWTTDMDGYLGETSAGPGKSLP = 7.51
• IRL51 (receptor, also called Q60I-Q64R/Q105R) CRIg variant: RPILEVPESVTGPWKGDVNLPCTYDPLQGYTQVLVKWLVQRGSDPVTIFLRDSSGDHIQIAKYRGRLHVSHKVPGDVSLQLSTLEMDDRSHYTCEVTWQTPDGNRVVRDKITELRVQKHSSKLLKTKTEAPTTMTYPLKATSTVKQSWDWTTDMDGYLGETSAGPGKSLP = 7.62
